Origin of values: patent US4758557A

Test system: Pseudomonas aeruginosa M-0148
Assay: MIC in agar plate culture-dilution assay
Type: cell-based
Settings: M0148; Pseudomonas aeruginosa M-0148; agar plate culture-dilution; read-out: MIC
Quantity kind: MIC (µg/mL)

INSERT INTO results (compound, number) VALUES
  ('NC(=O)C[n+]1ccc(SCC2=C(C(=O)[O-])N3C(=O)[C@@H](NC(=O)C(NC(=O)c4cc(=O)c(O)cn4O)c4csc(N)n4)[C@H]3SC2)cc1 (stereo partly drawn) [Example 6]', 0.78),
  ('C[n+]1cccc(SCC2=C(C(=O)[O-])N3C(=O)[C@@H](NC(=O)C(NC(=O)c4cc(=O)c(O)cn4O)c4csc(N)n4)[C@H]3SC2)c1 (stereo partly drawn) [Example 4]', 0.39),
  ('Nc1nc(C(NC(=O)c2cc(=O)c(O)cn2O)C(=O)N[C@@H]2C(=O)N3C(C(=O)O)=C(CSc4nc5ccccc5s4)CS[C@H]23)cs1 (stereo partly drawn) [Example 26]', 0.2),
  ('C[n+]1ccc(SCC2=C(C(=O)[O-])N3C(=O)[C@@H](NC(=O)C(NC(=O)c4cc(=O)c(O)cn4O)c4csc(N)n4)[C@H]3SC2)c2c1CCC2 (stereo partly drawn) [Example 14]', 0.2),
  ('Nc1nc(C(NC(=O)c2cc(=O)c(O)cn2O)C(=O)N[C@@H]2C(=O)N3C(C(=O)[O-])=C(CSc4cc[n+](CCO)cc4)CS[C@H]23)cs1 (stereo partly drawn) [Example 5]', 0.78),
  ('Cn1c(SCC2=C(C(=O)O)N3C(=O)[C@@H](NC(=O)C(NC(=O)c4cc(=O)c(O)cn4O)c4csc(N)n4)[C@H]3SC2)nnc(O)c1=O (stereo partly drawn) [Example 22]', 0.39),
  ('Nc1nc(C(NC(=O)c2cc(=O)c(O)cn2O)C(=O)N[C@@H]2C(=O)N3C(C(=O)[O-])=C(CSc4cc[n+](C5CC5)cc4)CS[C@H]23)cs1 (stereo partly drawn) [Example 8]', 1.56),
  ('Nc1nc(C(NC(=O)c2cc(=O)c(O)cn2O)C(=O)N[C@@H]2C(=O)N3C(C(=O)O)=C(CSc4ccnc5c4CCC5)CS[C@H]23)cs1 (stereo partly drawn) [Example 15]', 0.2);

a: C[n+]1ccc(SCC2=C(C(=O)[O-])N3C(=O)[C@@H](NC(=O)C(NC(=O)c4cc(=O)c(O)c[nH]4)c4csc(N)n4)[C@H]3SC2)cc1 (stereo partly drawn) [A, reference compound]
b: Nc1nc(C(NC(=O)c2cc(=O)c(O)cn2O)C(=O)N[C@@H]2C(=O)N3C(C(=O)[O-])=C(CSc4cc[n+](CC(=O)O)c5c4CCC5)CS[C@H]23)cs1 (stereo partly drawn) [Example 17]
Could you please tell me which of these two has the higher MIC: a or b ? Give the label under which the chosen entry appears.
a

1: Nc1nc(C(NC(=O)c2cc(=O)c(O)cn2O)C(=O)N[C@@H]2C(=O)N3C(C(=O)O)=C(CSc4cnns4)CS[C@H]23)cs1 (stereo partly drawn) [Example 25]
2: Nc1nc(C(NC(=O)c2cc(=O)c(O)cn2O)C(=O)N[C@@H]2C(=O)N3C(C(=O)O)=C(CSc4ccncc4)CS[C@H]23)cs1 (stereo partly drawn) [Example 16]
Smaller MIC value? Options are 1 and 2 Give the label under which the chosen entry appears.
1
(1: 0.2 µg/mL, 2: 3.13 µg/mL)
